measured_target: T1, human MAdCAM expressed on cells (human, UniProt Q13477 19-382)
T1 construct: whole, on cells; also called MADCAM1
T1 sequence (looked up): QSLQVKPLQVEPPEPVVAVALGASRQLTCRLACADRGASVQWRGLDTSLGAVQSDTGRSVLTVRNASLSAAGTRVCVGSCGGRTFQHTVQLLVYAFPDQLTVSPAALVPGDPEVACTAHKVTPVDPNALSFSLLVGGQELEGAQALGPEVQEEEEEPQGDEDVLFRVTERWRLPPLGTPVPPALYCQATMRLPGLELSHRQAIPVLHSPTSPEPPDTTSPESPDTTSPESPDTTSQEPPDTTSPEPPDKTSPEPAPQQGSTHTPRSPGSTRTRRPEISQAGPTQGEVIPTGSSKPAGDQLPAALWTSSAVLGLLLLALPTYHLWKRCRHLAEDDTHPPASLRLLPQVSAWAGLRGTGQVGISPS
assay_summary: cell binding
endpoint_label: binding result

>>> observed_measurement("MAdCAM antibody Clone ID 3 of Table 6 (scFv) (scFv) scFv: QVQLVQSGAEVKKPGASVKVSCKASGYPFIGQYLHWVRQAPGQGLEWMGIINPSGGSTSYAQKFQGRVTMTRDTSTSTVYMELSSLRSEDTAVYYCAREGRLSYGMDAWGQGTLVTVSSGGGGSGGGGSGGGGSGGGGSDIQMTQSPSSLSASVGDRVTITCRASQSISSYLAWYQQKPGKAPKLLIYGASTLESGVPSRFSGSGSGTDFTLTISSLQPEDFATYYCQQTWGPPFTFGQGTKLEIK")
"binds"
>>> observed_measurement("MAdCAM antibody Clone ID 14 of Table 6 (scFv) (scFv) scFv: QVQLVQSGAEVKKPGSSVKVSCKASGYTFTDYHIHWVRQAPGQGLEWMGGIVPRSGSTTYAQKFQGRVTITADESTSTAYMELSSLRSEDTAVYYCAKDESSGWYYFDYWGQGTLVTVSSGGGGSGGGGSGGGGSGGGGSDIVMTQSPLSLPVTPGEPASISCRSSQSLLHSNGYNYLDWYLQKPGQSPQLLIYSAYNRASGVPDRFSGSGSGTDFTLKISRVEAEDVGVYYCMQALQTPLTFGQGTKVEIK")
"binds"
>>> observed_measurement("MAdCAM antibody Clone ID 66 of Table 6 (scFv) (scFv) scFv: EVQLLESGGGLVQPGGSLRLSCAASGFTFSSYWMHWVRQAPGKGLEWVAAISYDGKYKDYEDSVKGRFTISRDNSKNTLYLQMNSLRAEDTAVYYCARENKQWLASFDYWGQGTLVTVSSGGGGSGGGGSGGGGSGGGGSDIQMTQSPSSLSASVGDRVTITCQASQDISNFVNWYQQKPGKAPKLLIYAANLRSGVPSRFSGSGSGTDFTLTISSLQPEDFATYYCQQANSFPVTFGPGTKVDIK")
"binds"
